- Tested on: Enterococcus faecalis
- EXPERIMENT: Antimicrobial activity against Streptococcus faecalis ATCC 9790 by MTT assay
- Type: functional
Listed below: MIC values for each entry.
Give a bare numeral; the unit µg/mL is implied.

Form field - read-out: MIC; system: Enterococcus faecalis; submitted item: COc1cc(OC)cc(C2CC(c3ccc(Br)cc3)=NN2C(C)=O)c1 (stereo not given) 25

Then what about the molecule CC(=O)N1N=C(c2ccc(Cl)c(Cl)c2)CC1c1ccccc1Cl (stereo not given) ? 12.5

Then what about the molecule COc1ccc(C2CC(c3ccccc3F)=NN2C(C)=O)cc1 (stereo not given) ? 12.5

Then what about the molecule CC(=O)N1N=C(c2ccc(Cl)cc2)CC1c1ccc(Cl)cc1 (stereo not given) ? 6.25

Then what about the molecule CC(=O)N1N=C(c2ccccc2)CC1c1ccc(C)cc1 (stereo not given) ? 6.25

Then what about the molecule CC(=O)N1N=C(c2ccccc2F)CC1c1ccc(Cl)cc1 (stereo not given) ? 12.5

Then what about the molecule CC(=O)N1N=C(c2ccccc2)CC1c1ccc(F)cc1 (stereo not given) ? 50

Then what about the molecule COc1ccc(C2=NN(C(C)=O)C(c3ccc(Cl)cc3)C2)cc1 (stereo not given) ? 6.25

New cases:
Form field - read-out: MIC; system: Enterococcus faecalis; submitted item: CC(=O)N1N=C(c2ccccc2F)CC1c1ccccc1Cl (stereo not given) 25

Then what about the molecule `NC[C@H]1O[C@H](O[C@H]2[C@H](O)[C@@H](O[C@H]3O[C@H](CO)[C@@H](O)[C@H](N)[C@H]3O)[C@H](N)C[C@@H]2N)[C@H](N)[C@@H](O)[C@@H]1O` ? 3.12

* * *

- Tested on: Bacillus subtilis
- EXPERIMENT: Antimicrobial activity against Bacillus subtilis ATCC 6633 by MTT assay
- Type: functional
ASSAY METRIC: MIC (µg/mL)
Give a bare numeral; the unit µg/mL is implied.

// known answers, use as guide
Sample COc1cc(OC)cc(C2CC(c3ccc(Br)cc3)=NN2C(C)=O)c1 (stereo unspecified) — what was its MIC? 50

Then what about the compound COc1ccc(C2CC(c3ccc(Br)cc3)=NN2C(C)=O)cc1 (stereo unspecified) ? 25

Then what about the compound CC(=O)N1N=C(c2ccc(C)c(C)c2)CC1c1ccc(C)cc1 (stereo unspecified) ? 12.5

Then what about the compound CC(=O)N1N=C(c2ccc(Br)cc2)CC1c1ccc(C)cc1 (stereo unspecified) ? 25

Then what about the compound CC(=O)N1N=C(c2ccc(C)c(C)c2)CC1c1ccc(Br)cc1 (stereo unspecified) ? 25

New cases:
Sample COc1cc(OC)cc(C2CC(c3ccc(Cl)c(Cl)c3)=NN2C(C)=O)c1 (stereo unspecified) — what was its MIC? 12.5

Then what about the compound CC(=O)N1N=C(c2ccc(Br)cc2)CC1c1ccccc1Cl (stereo unspecified) ? 25

Then what about the compound CC(=O)N1N=C(c2ccc(Cl)c(Cl)c2)CC1c1ccccc1Cl (stereo unspecified) ? 3.12

Then what about the compound COc1ccc(C2=NN(C(C)=O)C(c3cc(OC)cc(OC)c3)C2)cc1 (stereo unspecified) ? 6.25

Then what about the compound CC(=O)N1N=C(c2ccc(Br)cc2)CC1c1ccccc1 (stereo unspecified) ? 50

* * *

- System: Staphylococcus aureus
- EXPERIMENT: Antimicrobial activity against Staphylococcus aureus ATCC 6538 by MTT assay
- Assay type: functional
ASSAY METRIC: MIC (µg/mL)
Give a bare numeral; the unit µg/mL is implied.

// known answers, use as guide
Sample CC(=O)N1N=C(c2ccc(Br)cc2)CC1c1ccccc1 (stereo not drawn) — what was its MIC? 6.25

Then what about the molecule CC(=O)N1N=C(c2ccc(C)c(C)c2)CC1c1ccccc1 (stereo not drawn) ? 25

Then what about the molecule CC(=O)N1N=C(c2ccccc2F)CC1c1ccc(Br)cc1 (stereo not drawn) ? 25

Then what about the molecule COc1ccc(C2=NN(C(C)=O)C(c3ccc(Cl)cc3)C2)cc1 (stereo not drawn) ? 25

Then what about the molecule COc1ccc(C2=NN(C(C)=O)C(c3ccc(C)cc3)C2)cc1 (stereo not drawn) ? 6.25

New cases:
Sample CC(=O)N1N=C(c2ccccc2)CC1c1ccccc1 (stereo not drawn) — what was its MIC? 25

Then what about the molecule COc1ccc(C2=NN(C(C)=O)C(c3cc(OC)cc(OC)c3)C2)cc1 (stereo not drawn) ? 12.5
